Cited source: paper PMC6413339

# system_tested: BRAF (Homo sapiens)
# Sequence (P15056 whole entry): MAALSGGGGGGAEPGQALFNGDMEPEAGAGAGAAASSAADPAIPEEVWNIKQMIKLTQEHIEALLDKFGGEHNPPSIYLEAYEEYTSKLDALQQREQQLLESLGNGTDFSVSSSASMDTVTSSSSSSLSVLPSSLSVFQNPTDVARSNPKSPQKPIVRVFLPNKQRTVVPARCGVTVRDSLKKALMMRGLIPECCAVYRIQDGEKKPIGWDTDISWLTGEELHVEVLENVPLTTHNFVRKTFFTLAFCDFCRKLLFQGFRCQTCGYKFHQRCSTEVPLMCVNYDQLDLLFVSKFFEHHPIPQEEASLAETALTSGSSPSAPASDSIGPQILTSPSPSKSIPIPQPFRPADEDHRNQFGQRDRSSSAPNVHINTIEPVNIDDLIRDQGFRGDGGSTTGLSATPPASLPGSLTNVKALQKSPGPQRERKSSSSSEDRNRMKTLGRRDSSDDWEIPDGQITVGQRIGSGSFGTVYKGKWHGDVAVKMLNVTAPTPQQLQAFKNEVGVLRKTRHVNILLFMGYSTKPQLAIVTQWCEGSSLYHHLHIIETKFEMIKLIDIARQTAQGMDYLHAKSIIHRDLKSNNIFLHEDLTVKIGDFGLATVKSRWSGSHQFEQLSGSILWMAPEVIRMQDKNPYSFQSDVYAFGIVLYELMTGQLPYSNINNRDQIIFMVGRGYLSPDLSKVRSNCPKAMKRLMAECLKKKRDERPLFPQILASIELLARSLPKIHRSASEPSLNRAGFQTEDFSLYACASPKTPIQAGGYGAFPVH
experimental_endpoint: IC50 (nM)
State the answer as a number, implicitly in nM.

Query: // query IC50 value for entry `Cc1ncc(C(=O)Nc2ccc(CN3CCN(C)CC3)c(C(F)(F)F)c2)cc1C#Cc1c(N)ncc2ccc(F)cc12`
Reply: 26.3

* * *

# system_tested: Src (Homo sapiens, UniProt P12931)
# Construct: purchased Invitrogen PR4336E
# Sequence (P12931 whole entry): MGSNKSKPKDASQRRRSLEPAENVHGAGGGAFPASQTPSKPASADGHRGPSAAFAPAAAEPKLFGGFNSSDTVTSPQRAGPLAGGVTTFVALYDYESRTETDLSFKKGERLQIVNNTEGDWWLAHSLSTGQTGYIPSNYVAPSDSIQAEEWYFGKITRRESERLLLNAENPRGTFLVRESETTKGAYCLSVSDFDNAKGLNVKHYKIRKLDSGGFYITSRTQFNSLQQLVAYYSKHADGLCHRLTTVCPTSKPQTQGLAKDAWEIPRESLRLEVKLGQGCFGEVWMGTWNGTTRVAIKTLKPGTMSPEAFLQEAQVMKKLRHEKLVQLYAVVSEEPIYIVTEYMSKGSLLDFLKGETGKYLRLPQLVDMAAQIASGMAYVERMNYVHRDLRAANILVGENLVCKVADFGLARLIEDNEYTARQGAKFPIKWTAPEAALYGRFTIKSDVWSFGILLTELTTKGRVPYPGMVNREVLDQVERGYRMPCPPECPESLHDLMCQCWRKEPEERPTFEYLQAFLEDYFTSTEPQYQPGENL
# experiment: Cell-free kinase assay (Reaction Biology, ADP-Glo)
# Assay type: biochemical
# experimental_conditions: inhibitor 500 nM; 100 μM ATP; average of duplicate
experimental_endpoint: inhibition at 0.5 µM (%)
State the answer as a number, implicitly in %.

For orientation, consider the following solved cases.
Query: I'm curious: which inhibition at 0.5 µM was measured for `Cc1ncc(C(=O)Nc2ccc(CN3CCN(C)CC3)c(C(F)(F)F)c2)cc1C#Cc1c(N)ncc2ccc(F)cc12` tested on Src (Homo sapiens, UniProt P12931)?
Reply: 98

Query: Moving on to the next compound: `Cc1ccc(C(=O)Nc2ccc(CN3CCN(C)CC3)c(C(F)(F)F)c2)cc1C#Cc1cncc2ccccc12`
Reply: 100

Query: Moving on to the next compound: `Cc1ccc(C(=O)Nc2ccc(CN3CCN(C)CC3)c(C(F)(F)F)c2)nc1C#Cc1c(N)ncc2ccc(Cl)cc12`
Reply: 16

Query: Moving on to the next compound: `Cc1ncc(C(=O)Nc2ccc(CN3CCN(C)CC3)c(C(F)(F)F)c2)cc1C#Cc1cnc(N)c2ccc(F)cc12`
Reply: 98

Query: Moving on to the next compound: `Cc1ccc(C(=O)Nc2ccc(CN3CCN(C)CC3)c(C(F)(F)F)c2)cc1C#Cc1c(N)ncc2ccccc12`
Reply: 100

Query: Moving on to the next compound: `Cc1ccc2cnc(N)c(C#Cc3cc(C(=O)Nc4ccc(CN5CCN(C)CC5)c(C(F)(F)F)c4)ccc3C)c2c1`
Reply: 100

***
Query: I'm curious: which inhibition at 0.5 µM was measured for `Cc1ccc(C(=O)Nc2ccc(CN3CCN(C)CC3)c(C(F)(F)F)c2)cc1C#Cc1c(N)ncc2ccc(F)cc12` tested on Src (Homo sapiens, UniProt P12931)?
Reply: 99

* * *

# system_tested: RSK1 (Homo sapiens, UniProt Q15418)
# Sequence (Q15418 whole entry): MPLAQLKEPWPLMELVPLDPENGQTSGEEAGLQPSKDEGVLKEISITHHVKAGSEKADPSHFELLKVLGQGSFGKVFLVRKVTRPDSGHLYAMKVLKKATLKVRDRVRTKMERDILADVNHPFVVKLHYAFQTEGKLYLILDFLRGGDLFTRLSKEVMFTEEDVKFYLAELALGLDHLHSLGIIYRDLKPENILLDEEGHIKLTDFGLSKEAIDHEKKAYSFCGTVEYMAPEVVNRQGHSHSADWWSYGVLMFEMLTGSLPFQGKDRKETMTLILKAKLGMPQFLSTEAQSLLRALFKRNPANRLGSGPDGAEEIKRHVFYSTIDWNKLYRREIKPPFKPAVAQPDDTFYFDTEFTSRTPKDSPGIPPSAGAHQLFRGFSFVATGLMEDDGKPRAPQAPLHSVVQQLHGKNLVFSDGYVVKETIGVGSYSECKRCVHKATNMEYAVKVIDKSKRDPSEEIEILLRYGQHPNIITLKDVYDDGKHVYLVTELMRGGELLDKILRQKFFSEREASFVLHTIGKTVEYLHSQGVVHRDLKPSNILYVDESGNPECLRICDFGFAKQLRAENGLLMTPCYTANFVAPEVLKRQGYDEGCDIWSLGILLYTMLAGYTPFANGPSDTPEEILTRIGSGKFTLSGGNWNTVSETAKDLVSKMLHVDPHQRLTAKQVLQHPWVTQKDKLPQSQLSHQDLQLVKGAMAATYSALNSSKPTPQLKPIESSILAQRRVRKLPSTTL
experimental_endpoint: IC50
Note to self: number, then unit, no commentary.

Query: // query IC50 value for entry Cc1ncc(C(=O)Nc2ccc(CN3CCN(C)CC3)c(C(F)(F)F)c2)cc1C#Cc1c(N)ncc2ccc(F)cc12 [Compound 7]
Reply: 1480 nM

* * *

# system_tested: FLT3-ITD (Homo sapiens, UniProt P36888, ITD)
# Sequence (P36888 564-993, change not shown): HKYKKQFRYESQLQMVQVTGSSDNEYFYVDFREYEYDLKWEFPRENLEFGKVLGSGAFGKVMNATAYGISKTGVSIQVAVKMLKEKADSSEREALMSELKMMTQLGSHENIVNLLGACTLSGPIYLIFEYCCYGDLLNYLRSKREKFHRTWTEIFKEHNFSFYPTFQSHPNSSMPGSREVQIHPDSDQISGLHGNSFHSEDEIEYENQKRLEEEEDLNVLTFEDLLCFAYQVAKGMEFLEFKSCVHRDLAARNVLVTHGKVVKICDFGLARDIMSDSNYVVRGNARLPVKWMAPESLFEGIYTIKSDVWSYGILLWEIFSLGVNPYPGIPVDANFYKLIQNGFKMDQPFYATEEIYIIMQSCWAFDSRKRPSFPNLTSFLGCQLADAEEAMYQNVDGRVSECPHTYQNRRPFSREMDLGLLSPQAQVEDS
# experiment: Cell-free kinase assay, dose-response (Reaction Biology, ADP-Glo)
# Format: biochemical
# Procedure: Cell-free kinase activity assays were performed at Reaction Biology Corporation. Briefly, kinases were incubated with substrates, 100 μM ATP and a 3-fold serial dilution of compounds starting at 1 μM. DMSO was used as control. […] Experiments were performed in duplicates. The concentrations of kinases and substrates used in the assays are indicated on Table S1. Kinase activity was quantified using the ADP-Glo™ Kinase Assay System (Promega, Madison, WI) following the manufacturer's recommendations.
experimental_endpoint: pIC50
The read-out pIC50 is expressed as -log10 of concentration in moles per litre.

Query: I'm curious: which pIC50 was measured for Cc1ncc(C(=O)Nc2ccc(CN3CCN(C)CC3)c(C(F)(F)F)c2)cc1C#Cc1c(N)ncc2ccc(F)cc12 [Compound 7] tested on FLT3-ITD (Homo sapiens, UniProt P36888, ITD)?
Reply: 7.90
